System: Staphylococcus aureus
assay: Antibacterial activity against ciprofloxacin-resistant Staphylococcus aureus MB 5786 (R35)
Format: functional
measured.metric: MIC (µg/mL)

[[record]]
compound = "O=C(O)c1cn(C2CC2)c2cc(N3CCNCC3)c(F)cc2c1=O [CIPROFLOXACIN]"
measured_metric = "MIC"
unit_name = "µg/mL"
inequality_symbol = ">"
quantitative_result = 16

[[record]]
compound = "CO[C@@H]1[C@@H](OC(N)=O)[C@@H](O)[C@H](Oc2ccc3c(O)c(NC(=O)c4ccc(O)c(CC=C(C)C)c4)c(=O)oc3c2C)OC1(C)C [NOVOBIOCIN]"
measured_metric = "MIC"
unit_name = "µg/mL"
inequality_symbol = "="
quantitative_result = 0.25

[[record]]
compound = "CO[C@H]1[C@H](OC(=O)c2ccc(C)[nH]2)[C@H](O)[C@@H](Oc2ccc3c(O)c(NC(=O)c4c[nH]c(C(=O)Nc5c(O)c6ccc(O[C@H]7OC(C)(C)[C@@H](OC)[C@H](OC(=O)c8ccc(C)[nH]8)[C@@H]7O)c(C)c6oc5=O)c4C)c(=O)oc3c2C)OC1(C)C [COUMERMYCIN A1]"
measured_metric = "MIC"
unit_name = "µg/mL"
inequality_symbol = "="
quantitative_result = 0.004

[[record]]
compound = "CO[C@H]1[C@@H](OC(C)=O)[C@@H](OC(N)=O)[C@@H](C)O[C@@H]1N1C(=O)/C(=C(\\O)C2[C@H]3C(C)CC[C@@H](O[C@H]4C[C@@](O)([C@H](C)NC(=O)c5ccc(C)[nH]5)[C@H](O)[C@@H](C)O4)[C@@H]3CC[C@@H]2C)C(=O)[C@@H]1C(C)C (stereo partly specified)"
measured_metric = "MIC"
unit_name = "µg/mL"
inequality_symbol = ">"
quantitative_result = 32

[[record]]
compound = "C=C1CC[C@@H](O[C@H]2C[C@@](O)([C@H](C)NC(=O)c3[nH]cc(Cl)c3Cl)[C@H](O)[C@@H](C)O2)[C@@H]2C=C[C@H](C)C(/C(O)=C3\\C(=O)[C@H](C(C)C)N([C@H]4O[C@H](C)[C@H](OC(N)=O)[C@H](OC(C)=O)[C@@H]4OC)C3=O)[C@@H]12 (stereo partly specified) [KIBDELOMYCIN A]"
measured_metric = "MIC"
unit_name = "µg/mL"
inequality_symbol = "="
quantitative_result = 16

[[record]]
compound = "C=C1CC[C@@H](O[C@H]2C[C@@](O)([C@H](C)NC(=O)c3[nH]c(C)c(Cl)c3Cl)[C@H](OC(C)=O)[C@@H](C)O2)[C@@H]2C=C[C@H](C)C(/C(O)=C3\\C(=O)[C@H](C(C)C)N([C@H]4O[C@H](C)[C@H](OC(N)=O)[C@H](OC(C)=O)[C@@H]4OC)C3=O)[C@@H]12 (stereo partly specified)"
measured_metric = "MIC"
unit_name = "µg/mL"
inequality_symbol = "="
quantitative_result = 8

